The measured values listed here are drawn from PubChem BioAssay (NCATS).

TEST TARGET: Chromobox protein homolog 1 (Homo sapiens) (UniProt P83916)
Sequence (P83916 whole entry, looked up): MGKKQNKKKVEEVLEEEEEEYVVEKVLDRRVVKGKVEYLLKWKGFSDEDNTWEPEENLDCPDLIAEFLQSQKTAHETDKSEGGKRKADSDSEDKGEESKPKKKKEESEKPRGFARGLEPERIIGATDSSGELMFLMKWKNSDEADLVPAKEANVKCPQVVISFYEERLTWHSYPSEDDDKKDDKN
ASSAY NOTES: qHTS Validation Assay for Inhibitors of HP1-beta Chromodomain Interactions with Methylated Histone Tails (AID 488953); note: nearly all actives have a fitted effect of over 50% in size
REPORTED CONDITIONS: HP1-beta chromodomain / methylated histone peptide binding assay; series mostly up to 114 µM
Results filed as inconclusive are left out. Active and inactive are the calls of the source. Calls come from the whole dose curve; as a rule, active = well fitted inhibition curve with a large enough effect; inconclusive = small, poorly fitted or top-dose-only effect; inactive = no such curve, though single readings can be large or run the other way.
Pick from Yes (active), No (inactive) when you respond.

Prompt: I would be grateful if you could indicate the recorded call for CCN(CC)C(=S)SSC(=S)N(CC)CC .
Response: Yes

Prompt: I would be grateful if you could indicate the recorded call for COc1ccc2cc([C@H](C)C(=O)O)ccc2c1 .
Response: Yes

Prompt: I would be grateful if you could indicate the recorded call for O=C1c2ccccc2-c2n[nH]c3cccc1c23 .
Response: No

Prompt: I would be grateful if you could indicate the recorded call for O=C1c2c(O)cc(O)cc2OC(c2ccc(O)c(O)c2)C1O (stereo unspecified) .
Response: Yes

Prompt: I would be grateful if you could indicate the recorded call for COc1cc2nc(N3CCN(C(=O)C4CCCO4)CC3)nc(N)c2cc1OC (stereo unspecified) .
Response: No

Prompt: I would be grateful if you could indicate the recorded call for CC(=O)O[C@H]1C(=O)[C@@]2(C)C([C@H](OC(=O)c3ccccc3)[C@]3(O)C[C@H](OC(=O)[C@H](O)[C@@H](NC(=O)c4ccccc4)c4ccccc4)C(C)=C1C3(C)C)[C@]1(OC(C)=O)CO[C@@H]1C[C@@H]2O (stereo partly specified) .
Response: No

Prompt: I would be grateful if you could indicate the recorded call for CC(C)c1ccc2c(c1)c(SC(C)(C)C)c(CC(C)(C)C(=O)O)n2Cc1ccc(Cl)cc1 .
Response: No

Prompt: I would be grateful if you could indicate the recorded call for C[C@H](Cc1ccc(O)c(O)c1)[C@@H](C)Cc1ccc(O)c(O)c1 .
Response: Yes

Prompt: I would be grateful if you could indicate the recorded call for O=c1c(O)c(-c2cc(O)c(O)c(O)c2)oc2cc(O)cc(O)c12 .
Response: Yes

Prompt: I would be grateful if you could indicate the recorded call for COc1ccccc1N1CCN(CCN(C(=O)C2CCCCC2)c2ccccn2)CC1 .
Response: No

Prompt: I would be grateful if you could indicate the recorded call for O=C1NC(=O)C(c2ccccc2[N+](=O)[O-])=C1Nc1ccc(O)c(Cl)c1 .
Response: Yes

---

System: PA-1
ASSAY NOTES: Primary qHTS to identify gynecologic anti-cancer compounds using libraries of approved drugs and bioactive compounds (AID 1345084); note: nearly all actives have a fitted effect of over 55% in size
REPORTED CONDITIONS: Gynecologic cancer cell panel viability, ATPlite luminescence, 48 h; series mostly up to 57.5 µM
Results filed as inconclusive are left out. The source made the active and inactive calls. Calls follow the shape of the dose curve; as a rule, active = well fitted cell-killing curve with a large enough effect; inconclusive = small, poorly fitted or top-dose-only effect, or effect the other way; inactive = flat fitted curve, though single readings scatter.
Pick from active, inactive when you respond.

Prompt: I would be grateful if you could indicate the recorded call for CS(=O)(=O)OCCCCOS(C)(=O)=O .
Response: inactive

Prompt: I would be grateful if you could indicate the recorded call for COc1cc(OC)c(C(=O)CCCN2CCCC2)c(OC)c1 .
Response: inactive

Prompt: I would be grateful if you could indicate the recorded call for CN(C)c1ccc(O)c2c1C[C@H]1C[C@H]3[C@H](N(C)C)C(=O)C(C(N)=O)=C(O)[C@@]3(O)C(=O)C1=C2O .
Response: inactive

Prompt: I would be grateful if you could indicate the recorded call for Nc1cccc2c1CN(C1CCC(=O)NC1=O)C2=O (centres undefined) .
Response: inactive

Prompt: I would be grateful if you could indicate the recorded call for COc1cc(Nc2c(C#N)cnc3cc(OCCCN4CCN(C)CC4)c(OC)cc23)c(Cl)cc1Cl .
Response: active

Prompt: I would be grateful if you could indicate the recorded call for CC(C)Oc1ccc2c(=O)c(-c3ccccc3)coc2c1 .
Response: active

Prompt: I would be grateful if you could indicate the recorded call for CN(C)C(=O)[C@H](O)[C@H](Cc1ccccc1)NC(=O)c1cc2cc(Cl)ccc2[nH]1 .
Response: inactive

Prompt: I would be grateful if you could indicate the recorded call for Cc1ccc(C)c(OCCCC(C)(C)C(=O)O)c1 .
Response: inactive

Prompt: I would be grateful if you could indicate the recorded call for Cc1ccc(Nc2nccc(N(C)c3ccc4c(C)n(C)nc4c3)n2)cc1S(N)(=O)=O .
Response: inactive
